- assay-target: recombinant human ACC1 (rhACC1) (Homo sapiens, UniProt Q13085, DEL44-44)
- Construct: recombinant baculovirus containing full length human ACC1 cDNA
- experiment-description: recombinant hACC1 Transcreener assay (direct inhibition of ACC1 activity)
- conditions-used: Transcreener ADP detection FP assay, 50 μM ATP, 30 μM acetyl-CoA, 120 min at 25° C.
pIC50: −log10 of the molar value.
Short version: pIC50 at least 6 is 1 (yes), less is 0 (no).

compound | assigned-class
Cc1cc(C(=O)N2CCC3(CC2)CC(=O)c2c(cnn2C(C)c2ccccc2)C3)ccc1Cl (stereo not shown) [Example 2A-6] | 1 (yes)
CC(C)(C)n1ncc2c1C(=O)CC1(CCN(C(=O)c3ccc4cn[nH]c4c3)CC1)C2 [Example 11A-74] | 1 (yes)
Cc1ccc(O)c(C(=O)N2CCC3(CC2)CC(=O)c2c(cnn2C(C)(C)C)C3)n1 [Example 11A-44] | 0 (no)
CC(C)n1ncc2c1C(=O)CC1(CCN(C(=O)c3cc(F)c4[nH]ncc4c3)CC1)C2 [Example 2A-37] | 1 (yes)
CC(C)(C)n1ncc2c1C(=O)CC1(CCN(C(=O)c3cc4cccn4cn3)CC1)C2 [Example 11A-69] | 1 (yes)
Cn1ncc2c(=O)c(C(=O)N3CCC4(CC3)CC(=O)c3c(cnn3C(C)(C)C)C4)c[nH]c21 [Example 11A-70] | 0 (no)
